Data provenance is patent US12037344B2.

Tested on: THP-1 cells
test.description: Measurement of IL-1β production, hTRF protocol (second alternative procedure), THP-1 cells
Assay type: cell-based, human
recorded.conditions: Homo sapiens, THP-1, IL-1β production, human; read-out: NLRP3 hILIB EC50
pEC50: −log10 of the molar value.
test.readout: pEC50

INSERT INTO assay_data (compound, test_readout, numeric_readout) VALUES
  ('Nc1nc2cc(-c3cc[nH]n3)ccc2c2cn(CCNC(=O)c3ccon3)nc12 [Example 69]', 'pEC50', 6.15),
  ('Nc1nc2cc(-c3cc[nH]n3)ccc2c2cn(Cc3ccccn3)nc12 [Example 25]', 'pEC50', 6.59),
  ('Nc1nc2cc(-c3cc[nH]n3)ccc2c2cn(CCNC(=O)c3cc(F)ccn3)nc12 [Example 54]', 'pEC50', 6.72);

(1) Nc1nc2cc(-c3cc[nH]n3)ccc2c2cn(CCCOc3ccccc3F)nc12 [Example 7]
(2) COCCn1nc2c(N)nc3cc(-c4ccn[nH]4)ccc3c2n1 [Example 162]
(3) Nc1nc2cc(-c3cc[nH]n3)ccc2c2cn(CCNCc3ccccn3)nc12 [Example 112]
Give the ascending ranking of the items by reported pEC50. Give me the labels in the order the question wants.
3, 2, 1
(3: 5.60, 2: 5.91, 1: 6.38)

(I) CCn1cc2c(N)nc3cc(-c4cc[nH]n4)ccc3c2n1 [Example 334]
(II) Cc1nc(C(=O)NCCn2cc3c(n2)c(N)nc2cc(-c4cccs4)ccc23)co1 [Example 128]
In the pair I and II , the larger recorded pEC50 belongs to which? Your answer should be the label of the entry you select.
I
(I: 6.96, II: 6.44)

(P) Nc1nc2cc(-c3cc[nH]n3)ccc2c2cn(CCNC(=O)c3ccc(OC(F)(F)F)cn3)nc12 [Example 67]
(Q) Nc1nc2cc(-c3cc[nH]n3)ccc2c2cn(CCNCc3cccnc3)nc12 [Example 110]
# return whichever of P and Q has the smaller pEC50 Respond with the label that goes with your answer.
Q

(A) Nc1nc2cc(-c3cc[nH]n3)ccc2c2cn(CCN3CCCC3=O)nc12 [Example 122]
(B) Nc1nc2cc(-c3cc[nH]n3)ccc2c2cn(Cc3ccncc3)nc12 [Example 165]
(C) Nc1nc2cc(-c3cc[nH]n3)ccc2c2cn(CCNC(=O)c3cccc(Cl)c3)nc12 [Example 82]
Order the records, beginning with the lowest pEC50 and ending with the highest. Kindly provide the labels arranged according to the requested ordering.
A, C, B

---

Tested on: THP-1 cells
test.description: Measurement of IL-1β production, hTRF protocol (second alternative procedure), THP-1 cells
Assay type: cell-based, human
recorded.conditions: Homo sapiens, THP-1, IL-1β production, human; read-out: NLRP3 hILIB EC50
test.readout: EC50 (nM)

Consider the following illustrative entries.
INSERT INTO measurements (mol, test_readout, u, numeric_readout) VALUES
  ('Nc1nc2cc(-c3cc[nH]n3)ccc2c2nn(C[C@@H]3CC(F)(F)CN3)cc12', 'EC50', 'nM', 1840),
  ('CCC(=O)NCCn1cc2c(n1)c(N)nc1cc(-c3cc[nH]n3)ccc12', 'EC50', 'nM', 5200),
  ('COC[C@H](O)Cn1cc2c(N)nc3cc(-c4cc[nH]n4)ccc3c2n1', 'EC50', 'nM', 880);

(a) Nc1nc2cc(-c3cc[nH]n3)ccc2c2c1cnn2C1COC1
(b) CCCCn1cc2c(n1)c(N)nc1cc(-c3ccn[nH]3)ccc12
Could you point out whether the larger EC50 belongs to a or to b ? Pick one and reply with its label.
a
(a: 680 nM, b: 210 nM)

---

tested.system: TLR8 (Homo sapiens)
Construct: human HEK-Blue cells co-expressing a TLR7 or TLR8 gene
Sequence (Q9NR97 27-1041): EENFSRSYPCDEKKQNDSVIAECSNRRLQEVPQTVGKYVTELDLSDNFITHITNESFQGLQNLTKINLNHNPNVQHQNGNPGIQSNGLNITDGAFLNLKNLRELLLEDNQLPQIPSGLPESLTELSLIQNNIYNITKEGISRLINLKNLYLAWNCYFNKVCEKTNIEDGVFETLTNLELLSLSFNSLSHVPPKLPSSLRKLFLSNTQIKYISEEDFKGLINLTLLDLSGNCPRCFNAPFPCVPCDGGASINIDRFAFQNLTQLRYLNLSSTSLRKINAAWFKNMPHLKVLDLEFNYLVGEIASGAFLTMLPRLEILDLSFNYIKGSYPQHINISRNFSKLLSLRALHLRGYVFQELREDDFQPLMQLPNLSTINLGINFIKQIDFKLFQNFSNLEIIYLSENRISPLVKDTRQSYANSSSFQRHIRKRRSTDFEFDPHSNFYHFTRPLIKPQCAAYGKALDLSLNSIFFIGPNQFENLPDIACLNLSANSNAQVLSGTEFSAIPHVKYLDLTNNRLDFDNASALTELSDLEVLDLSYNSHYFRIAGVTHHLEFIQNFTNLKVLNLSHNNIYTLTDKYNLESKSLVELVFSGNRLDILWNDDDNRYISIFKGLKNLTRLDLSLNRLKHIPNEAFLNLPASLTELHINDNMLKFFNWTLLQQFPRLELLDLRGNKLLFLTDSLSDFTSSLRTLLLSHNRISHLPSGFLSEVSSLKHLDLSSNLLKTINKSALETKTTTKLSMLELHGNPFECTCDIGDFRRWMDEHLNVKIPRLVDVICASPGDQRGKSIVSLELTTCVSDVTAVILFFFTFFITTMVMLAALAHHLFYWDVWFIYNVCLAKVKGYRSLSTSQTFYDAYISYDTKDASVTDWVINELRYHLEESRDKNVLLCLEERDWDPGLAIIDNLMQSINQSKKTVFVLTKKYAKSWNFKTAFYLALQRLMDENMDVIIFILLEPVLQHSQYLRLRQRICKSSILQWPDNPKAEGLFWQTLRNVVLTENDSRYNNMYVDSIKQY
test.description: In vitro human TLR8 binding reporter assay (HEK-Blue, NF-kB/AP1-inducible SEAP)
Format: cell-based
recorded.conditions: activity range class, read-out: TLR8 Agonist EC50
EC50 listing for selected compounds.

INSERT INTO measurements (compound, tested_system, result) VALUES
  ('Nc1nc2cc(-c3ccn[nH]3)ccc2c2nn(CCN3CCC3)cc12', 'TLR8 (Homo sapiens)', '> 100 µM'),
  ('Nc1nc2cc(-c3cc[nH]n3)ccc2c2nn(C[C@H]3CCC(=O)N3)cc12', 'TLR8 (Homo sapiens)', '> 100 µM'),
  ('Nc1nc2cc(-c3cc[nH]n3)ccc2c2cn(CCNC(=O)c3ccc(F)cn3)nc12', 'TLR8 (Homo sapiens)', '1 to 20 µM'),
  ('Cc1ccc(C(=O)NCCn2cc3c(n2)c(N)nc2cc(-c4cc[nH]n4)ccc23)nc1', 'TLR8 (Homo sapiens)', '20 to 100 µM'),
  ('CC(O)CCn1cc2c(N)nc3cc(-c4ccn[nH]4)ccc3c2n1 (stereo not drawn)', 'TLR8 (Homo sapiens)', '> 100 µM');

Look up and report measured EC50 for this entry: Nc1nc2cc(-c3cc[nH]n3)ccc2c2nn(C3COCC3O)cc12 (single isomer, unassigned) [Example 325]
> 100 µM

Please list EC50 recorded for the compound `CCCn1cc2c(n1)c(N)nc1cc(-c3ccn[nH]3)ccc12`
> 100 µM

---

System: THP-1 cells
test.description: Measurement of IL-1β production, hTRF protocol (second alternative procedure), THP-1 cells
Format: cell-based, human
recorded.conditions: Homo sapiens, THP-1, IL-1β production, human; read-out: NLRP3 hILIB EC50
test.readout: EC50 (µM)

Take a look at these entries with their results.
INSERT INTO assay_data (molecule, tested_system, test_readout, u, numeric_readout) VALUES
  ('Nc1nc2cc(-n3cccn3)ccc2c2c1cnn2CCO', 'THP-1 cells', 'EC50', 'µM', 1.95),
  ('Nc1nc2cc(-c3cc[nH]n3)ccc2c2nn(C[C@H](O)CO)cc12', 'THP-1 cells', 'EC50', 'µM', 1.47),
  ('Cc1nc(Cn2cc3c(n2)c(N)nc2cc(-c4cc[nH]n4)ccc23)no1', 'THP-1 cells', 'EC50', 'µM', 0.23),
  ('Nc1nc2cc(-c3cc[nH]n3)ccc2c2nn(CCN3CCCC3)cc12', 'THP-1 cells', 'EC50', 'µM', 0.66);

(P) COCCn1cc2c(N)nc3cc(-c4cccs4)ccc3c2n1
(Q) Nc1nc2cc(-c3cc[nH]n3)ccc2c2c1cnn2CC(O)CO (stereo not drawn)
// pick larger EC50 from pair: P vs Q Lab log: write the label of the selected item as the result.
Q
(Q: 12.5 µM, P: 0.65 µM)

---

Tested on: THP-1 cells
test.description: Measurement of IL-1β production, hTRF protocol (second alternative procedure), THP-1 cells
Type: cell-based, human
recorded.conditions: Homo sapiens, THP-1, IL-1β production, human; read-out: NLRP3 hILIB EC50
test.readout: EC50 (nM)

INSERT INTO measurements (compound, numeric_readout) VALUES
  ('CC(C)(N)Cn1cc2c(N)nc3cc(-c4ccn[nH]4)ccc3c2n1', 1070);

(P) Nc1nc2cc(-c3cc[nH]n3)ccc2c2nn(CC3CCCO3)cc12 (centres unmarked)
(Q) CCOCCn1cc2c(N)nc3cc(-c4cc[nH]n4)ccc3c2n1
(R) Nc1nc2cc(-c3cc[nH]n3)ccc2c2cn(CCNC(=O)c3cccc(F)c3)nc12
(S) CC(C)(C)OCC(O)Cn1cc2c(N)nc3cc(-c4cc[nH]n4)ccc3c2n1 (centres unmarked)
# rank_down: sort by EC50, max first Answer format: list of labels, ordered as asked.
S, R, Q, P
(S: 4120 nM, R: 1680 nM, Q: 270 nM, P: 80 nM)
